biological target: PRKACB (human); assay: Caliper, Mobility shift assay off-chip; conditions: compound 0.02 µM
observable: inhibition (%)
State just the number; it will be interpreted in %.

Cc1ccc(Nc2nccc(N(C)c3ccc4c(C)n(C)nc4c3)n2)cc1S(N)(=O)=O has a reported inhibition of -1.5

CNC(=O)c1cc(Oc2ccc(NC(=O)Nc3ccc(Cl)c(C(F)(F)F)c3)cc2)ccn1 has a reported inhibition of -7.7

CNC(=O)c1ccccc1Sc1ccc2c(/C=C/c3ccccn3)n[nH]c2c1 has a reported inhibition of -10.6

COc1cc2c(Oc3ccc4[nH]c(C)cc4c3F)ncnc2cc1OCCCN1CCCC1 has a reported inhibition of 6.8

* * *

target: GSK3A (human) (UniProt P49840); experiment: Caliper, Mobility shift assay off-chip; conditions: compound 0.02 µM
Sequence (P49840 whole entry, looked up): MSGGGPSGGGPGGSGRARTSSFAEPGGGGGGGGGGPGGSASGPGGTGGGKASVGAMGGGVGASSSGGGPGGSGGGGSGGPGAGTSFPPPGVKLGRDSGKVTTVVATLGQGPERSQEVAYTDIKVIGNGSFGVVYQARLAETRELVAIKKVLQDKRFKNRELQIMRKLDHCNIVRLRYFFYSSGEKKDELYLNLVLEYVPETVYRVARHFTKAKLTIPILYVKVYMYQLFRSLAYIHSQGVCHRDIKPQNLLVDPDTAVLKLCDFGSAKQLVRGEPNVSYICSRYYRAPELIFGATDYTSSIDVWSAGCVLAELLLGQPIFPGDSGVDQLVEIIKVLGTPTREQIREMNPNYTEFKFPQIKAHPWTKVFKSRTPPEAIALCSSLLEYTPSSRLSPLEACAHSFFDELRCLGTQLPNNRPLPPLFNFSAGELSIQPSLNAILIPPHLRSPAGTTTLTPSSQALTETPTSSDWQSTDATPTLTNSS
observable: inhibition
Include the unit right after the number.

Examples with their reported inhibition follow.
> print(dat)
                                smiles.text  result
1  Cc1ccc(Nc2nccc(N(C)c3ccc4c(C)n(C)nc4c3)n2)cc1S(N)(=O)=O    1.8%
2  CNC(=O)c1cc(Oc2ccc(NC(=O)Nc3ccc(Cl)c(C(F)(F)F)c3)cc2)ccn1   -3.9%
3  COc1cc2c(Oc3ccc4[nH]c(C)cc4c3F)ncnc2cc1OCCCN1CCCC1    3.5%

CNC(=O)c1ccccc1Sc1ccc2c(/C=C/c3ccccn3)n[nH]c2c1 has a reported inhibition of 0.2%

* * *

As shown below, each of these compounds has a reported inhibition value.
target: YES1 (human) (UniProt P07947); experiment: Caliper, Mobility shift assay off-chip; details: compound 0.2 µM
Sequence (P07947 whole entry, looked up): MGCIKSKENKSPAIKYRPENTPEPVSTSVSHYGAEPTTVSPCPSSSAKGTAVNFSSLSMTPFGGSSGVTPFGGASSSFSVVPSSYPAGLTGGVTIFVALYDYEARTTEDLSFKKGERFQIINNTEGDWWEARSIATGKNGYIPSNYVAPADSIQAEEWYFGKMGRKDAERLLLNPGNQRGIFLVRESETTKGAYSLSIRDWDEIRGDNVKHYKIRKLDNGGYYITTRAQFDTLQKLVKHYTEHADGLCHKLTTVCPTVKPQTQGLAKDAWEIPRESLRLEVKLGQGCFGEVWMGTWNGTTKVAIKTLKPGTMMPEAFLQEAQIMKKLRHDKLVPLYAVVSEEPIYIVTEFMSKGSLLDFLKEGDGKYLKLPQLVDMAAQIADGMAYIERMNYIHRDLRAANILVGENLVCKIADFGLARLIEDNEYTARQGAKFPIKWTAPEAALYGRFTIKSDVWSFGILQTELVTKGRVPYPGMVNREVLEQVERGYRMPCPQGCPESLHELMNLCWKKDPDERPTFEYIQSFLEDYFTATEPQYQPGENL
State just the number; it will be interpreted in %.

> print(dat)
                                smiles.text  numeric.readout
1  CNC(=O)c1cc(Oc2ccc(NC(=O)Nc3ccc(Cl)c(C(F)(F)F)c3)cc2)ccn1             17.7
2  CCN(CC)CCNC(=O)c1c(C)[nH]c(/C=C2\C(=O)Nc3ccc(F)cc32)c1C             96.9
3  COc1cc2c(Oc3ccc4[nH]c(C)cc4c3F)ncnc2cc1OCCCN1CCCC1             73.7

Query compound follows.
Field inhibition (system: YES1 (human) (UniProt P07947)) for entry Cc1ccc(Nc2nccc(N(C)c3ccc4c(C)n(C)nc4c3)n2)cc1S(N)(=O)=O = 44.3

* * *

As shown below, each of these molecules has a reported inhibition value.
target: TNIK (human) (UniProt Q9UKE5); assay: Caliper, Mobility shift assay off-chip; settings: compound 0.2 µM
Sequence (Q9UKE5 whole entry, looked up): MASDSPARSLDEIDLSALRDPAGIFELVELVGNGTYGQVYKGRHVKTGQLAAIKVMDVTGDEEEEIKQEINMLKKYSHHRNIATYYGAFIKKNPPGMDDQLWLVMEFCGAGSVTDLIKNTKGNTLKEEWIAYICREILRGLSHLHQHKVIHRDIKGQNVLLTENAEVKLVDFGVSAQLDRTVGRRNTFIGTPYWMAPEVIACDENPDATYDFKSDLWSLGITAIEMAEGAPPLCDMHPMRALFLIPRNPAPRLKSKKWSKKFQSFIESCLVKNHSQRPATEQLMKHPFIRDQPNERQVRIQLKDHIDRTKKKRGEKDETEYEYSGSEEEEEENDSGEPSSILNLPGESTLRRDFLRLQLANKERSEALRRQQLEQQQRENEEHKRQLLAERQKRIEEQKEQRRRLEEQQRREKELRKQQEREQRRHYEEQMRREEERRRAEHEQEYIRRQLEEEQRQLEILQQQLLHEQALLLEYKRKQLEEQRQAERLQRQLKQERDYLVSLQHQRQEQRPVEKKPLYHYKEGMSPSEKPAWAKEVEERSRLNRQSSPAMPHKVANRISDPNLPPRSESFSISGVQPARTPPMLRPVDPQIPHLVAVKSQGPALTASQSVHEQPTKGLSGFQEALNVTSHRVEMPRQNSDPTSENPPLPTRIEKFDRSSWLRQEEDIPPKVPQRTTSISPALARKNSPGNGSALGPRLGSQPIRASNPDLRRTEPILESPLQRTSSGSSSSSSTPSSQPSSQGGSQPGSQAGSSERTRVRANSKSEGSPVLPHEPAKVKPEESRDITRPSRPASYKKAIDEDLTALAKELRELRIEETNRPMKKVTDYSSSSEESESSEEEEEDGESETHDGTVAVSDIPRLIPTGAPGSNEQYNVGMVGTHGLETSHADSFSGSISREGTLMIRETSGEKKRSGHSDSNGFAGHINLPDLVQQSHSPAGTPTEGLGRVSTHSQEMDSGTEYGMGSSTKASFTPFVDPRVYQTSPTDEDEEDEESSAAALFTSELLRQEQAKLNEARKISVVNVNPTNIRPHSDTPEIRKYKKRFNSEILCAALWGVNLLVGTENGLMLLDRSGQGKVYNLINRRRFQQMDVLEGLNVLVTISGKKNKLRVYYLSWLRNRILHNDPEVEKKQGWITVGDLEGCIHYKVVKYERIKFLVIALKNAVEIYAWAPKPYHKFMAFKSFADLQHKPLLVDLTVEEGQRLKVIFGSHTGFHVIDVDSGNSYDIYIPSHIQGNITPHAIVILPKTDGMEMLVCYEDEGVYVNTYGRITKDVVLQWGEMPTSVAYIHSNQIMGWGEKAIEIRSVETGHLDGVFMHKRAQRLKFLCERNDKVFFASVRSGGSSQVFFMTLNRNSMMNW
State just the number; it will be interpreted in %.

Examples with their reported inhibition follow.
> print(dat)
                                smiles.text  u  numeric.readout
1  CNC(=O)c1cc(Oc2ccc(NC(=O)Nc3ccc(Cl)c(C(F)(F)F)c3)cc2)ccn1  %              0.8
2  Cc1ccc(Nc2nccc(N(C)c3ccc4c(C)n(C)nc4c3)n2)cc1S(N)(=O)=O  %             46.6
3  COc1cc2c(Oc3ccc4[nH]c(C)cc4c3F)ncnc2cc1OCCCN1CCCC1  %             24.9

CCN(CC)CCNC(=O)c1c(C)[nH]c(/C=C2\C(=O)Nc3ccc(F)cc32)c1C has a reported inhibition of 87.5
